Experiment: qHTS for Activators of Parkin Expression: LOPAC Validation Assay (FLuc Reporter) (AID 720573)
Details: Cell line, PRKN promoter firefly luciferase reporter; series mostly up to 46.1 µM
Inconclusive results are not listed. Calls of active or inactive are those of the source. Calls follow the shape of the dose curve; as a rule, active = well fitted activation curve with a large enough effect; inconclusive = small, poorly fitted or top-dose-only effect; inactive = no such curve, though single readings can be large or run the other way.
Hi there, use one of these labels in your reply, thanks! active, inactive

A selection of reference data follows.
O=C(O)CNC(=O)C(CS)Cc1ccccc1 (stereo unspecified): inactive
CCCCC#Cc1nc(NC)c2ncn([C@@H]3O[C@H](CO)[C@@H](O)[C@H]3O)c2n1: inactive
CC(C)NC[C@@H](O)c1ccc(O)c(O)c1: inactive
CC(=O)N[C@H](C(=O)O)C(C)(C)SN=O: inactive
O=C(O)/C=C/C(O)c1ccc(Cl)cc1 (stereo unspecified): inactive

Q: # fetch the recorded call for "COc1cc(SC)ccc1C(=O)N1CCC(Cc2ccccc2)CC1" here
A: inactive

Q: # fetch the recorded call for "COC(=O)c1c(C)[nH]c(C)c1C(=O)c1ccccc1Cc1ccccc1" here
A: inactive

Q: # fetch the recorded call for "CCCCCCCCc1ccc(-c2ccc(C(=O)O)cc2)cc1" here
A: inactive
